Target: Human STING (Homo sapiens, UniProt Q86WV6, G230A/H232R/R293Q/R71H)
Construct: using human THP1-Blue™ ISG SEAP based reporter cell line (Invivogen)
Sequence (Q86WV6 whole entry R71H/G230A/H232R/R293Q): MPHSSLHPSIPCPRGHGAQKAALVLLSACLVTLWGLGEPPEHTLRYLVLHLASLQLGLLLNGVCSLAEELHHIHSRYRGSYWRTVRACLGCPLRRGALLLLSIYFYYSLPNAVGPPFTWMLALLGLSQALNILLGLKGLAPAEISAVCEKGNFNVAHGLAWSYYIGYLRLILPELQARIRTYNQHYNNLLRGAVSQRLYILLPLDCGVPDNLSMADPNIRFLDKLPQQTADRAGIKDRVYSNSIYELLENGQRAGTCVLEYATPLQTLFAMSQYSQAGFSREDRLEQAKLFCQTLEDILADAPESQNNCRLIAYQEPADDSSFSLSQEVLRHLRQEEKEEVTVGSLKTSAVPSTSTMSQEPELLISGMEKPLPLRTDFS
Experiment: Stimulation of human STING signaling in THP1 cell line (THP1-Blue ISG SEAP reporter)
Settings: THP1-Blue ISG cells, SEAP activity, 18-20 hours
Structures can show the parent of a compound that is named as a salt.
What EC50 was measured for each of the following?

**Q:** Returns the measured EC50 for the input compound. Input: CCn1nc(C)cc1C(=O)Nc1nc2cc(C(N)=O)cc3c2n1C/C=C/Cn1c(NC(=O)c2cc(C)nn2CC)nc2cc(C(=O)NCCCn4cc(C(=O)O)cn4)cc(c21)OC[C@@H](N1C2CCC1COC2)CO3 [Compound 18, sodium salt]
**A:** 1 to 10 nM

**Q:** Returns the measured EC50 for the input compound. Input: CCn1nc(C)cc1C(=O)Nc1nc2cc(C(N)=O)cc3c2n1C/C=C/Cn1c(NC(=O)c2cc(C)nn2CC)nc2cc(C(=O)N[C@H]4CC[C@H](C(=O)O)CC4)cc(c21)OCC(N1CC2CCC(C1)O2)CO3 (stereo partly drawn)
**A:** 11 to 100 nM

**Q:** Returns the measured EC50 for the input compound. Input: CCn1nc(C)cc1C(=O)Nc1nc2cc(C(N)=O)cc3c2n1C/C=C/Cn1c(NC(=O)c2cc(C)nn2CC)nc2cc(C(=O)N[C@H]4CC[C@@H](C(=O)O)CC4)cc(c21)OCCCO3
**A:** 11 to 100 nM

**Q:** Returns the measured EC50 for the input compound. Input: CCn1nc(C)cc1C(=O)Nc1nc2cc(C(N)=O)cc3c2n1C/C=C/Cn1c(NC(=O)c2cc(C)nn2CC)nc2cc(C(=O)N[C@H]4CC[C@H](c5nnn[nH]5)CC4)cc(c21)OC[C@@H](N1C2CCC1COC2)CO3 [Compound 12, sodium salt]
**A:** 1 to 10 nM

**Q:** Returns the measured EC50 for the input compound. Input: CCn1nc(C)cc1C(=O)Nc1nc2cc(C(N)=O)cc3c2n1C/C=C/Cn1c(NC(=O)c2cc(C)nn2CC)nc2cc(C(=O)NCCCc4nnn[nH]4)cc(c21)OC[C@@H](N1C2CCC1COC2)CO3 [Compound 16, sodium salt]
**A:** 1 to 10 nM

**Q:** Returns the measured EC50 for the input compound. Input: CCn1nc(C)cc1C(=O)Nc1nc2cc(C(N)=O)cc3c2n1C/C=C/Cn1c(NC(=O)c2cc(C)nn2CC)nc2cc(C(=O)NCCCc4nnn[nH]4)cc(c21)OCCCO3 [Compound 3, sodium salt]
**A:** 1 to 10 nM

**Q:** Returns the measured EC50 for the input compound. Input: CCn1nc(C)cc1C(=O)Nc1nc2cc(C(N)=O)cc3c2n1C/C=C/Cn1c(NC(=O)c2cc(C)nn2CC)nc2cc(C(=O)NCCc4nnn[nH]4)cc(c21)OCCCO3
**A:** 1 to 10 nM

**Q:** Returns the measured EC50 for the input compound. Input: CCn1nc(C)cc1C(=O)Nc1nc2cc(C(N)=O)cc3c2n1C/C=C/Cn1c(NC(=O)c2cc(C)nn2CC)nc2cc(C(=O)NCCCc4nnn[nH]4)cc(c21)OC[C@H](N1C2CCC1COC2)CO3 [Compound 17, sodium salt]
**A:** 11 to 100 nM

**Q:** Returns the measured EC50 for the input compound. Input: CCn1nc(C)cc1C(=O)Nc1nc2cc(C(N)=O)cc3c2n1C/C=C/Cn1c(NC(=O)c2cc(C)nn2CC)nc2cc(C(=O)N[C@H]4CC[C@H](C(=O)O)CC4)cc(c21)OC[C@@H](N1C2CCC1COC2)CO3 [Compound 14, sodium salt]
**A:** 1 to 10 nM
